Data origin, for the record: patent US8802661B2

The compounds listed here are annotated with their EC50.
tested on: recombinant NL4-3 virus (Renilla luciferase in nef, Gag P373S); assay: HIV Cell Culture Assay (luciferase reporter virus in MT-2 cells); format: cell-based; conditions: NL43, read-out: EC50 Group

// known answers, use as guide
SMILES RECORD: C=C(C)[C@@H]1CC[C@]2(C(=O)NCCN(CC(=O)O)CC(=O)O)CC[C@]3(C)[C@H](CC[C@@H]4[C@@]5(C)CC=C(c6ccc(C(=O)O)cc6)C(C)(C)[C@@H]5CC[C@]43C)[C@@H]12
MEASURED ON: recombinant NL4-3 virus (Renilla luciferase in nef, Gag P373S)
RECORDED RESULT: > 100 nM
//
SMILES RECORD: C=C(C)[C@@H]1CC[C@]2(C(=O)NCCNC(C)=O)CC[C@]3(C)[C@H](CC[C@@H]4[C@@]5(C)CC=C(c6ccc(C(=O)O)cc6)C(C)(C)[C@@H]5CC[C@]43C)[C@@H]12
MEASURED ON: recombinant NL4-3 virus (Renilla luciferase in nef, Gag P373S)
RECORDED RESULT: < 100 nM
//
SMILES RECORD: C=C(C)[C@@H]1CC[C@]2(C(=O)Nc3ncc(C(=O)O)s3)CC[C@]3(C)[C@H](CC[C@@H]4[C@@]5(C)CC=C(c6ccc(C(=O)O)cc6)C(C)(C)[C@@H]5CC[C@]43C)[C@@H]12
MEASURED ON: recombinant NL4-3 virus (Renilla luciferase in nef, Gag P373S)
RECORDED RESULT: < 100 nM
//
SMILES RECORD: C=C(C)[C@@H]1CC[C@]2(C(=O)N[C@H](C(=O)O)c3ccccc3)CC[C@]3(C)[C@H](CC[C@@H]4[C@@]5(C)CC=C(c6ccc(C(=O)O)cc6)C(C)(C)[C@@H]5CC[C@]43C)[C@@H]12
MEASURED ON: recombinant NL4-3 virus (Renilla luciferase in nef, Gag P373S)
RECORDED RESULT: < 100 nM
//
SMILES RECORD: C=C(C)[C@@H]1CC[C@]2(C(=O)N(C)CCN(C)C)CC[C@]3(C)[C@H](CC[C@@H]4[C@@]5(C)CC=C(c6ccc(C(=O)O)cc6)C(C)(C)[C@@H]5CC[C@]43C)[C@@H]12
MEASURED ON: recombinant NL4-3 virus (Renilla luciferase in nef, Gag P373S)
RECORDED RESULT: < 100 nM
//
SMILES RECORD: C=C(C)[C@@H]1CC[C@]2(C(=O)NCCN3CCS(=O)(=O)CC3)CC[C@]3(C)[C@H](CC[C@@H]4[C@@]5(C)CC=C(c6ccc(C(=O)O)c(F)c6)C(C)(C)[C@@H]5CC[C@]43C)[C@@H]12
MEASURED ON: recombinant NL4-3 virus (Renilla luciferase in nef, Gag P373S)
RECORDED RESULT: < 100 nM
//
SMILES RECORD: C=C(C)[C@@H]1CC[C@]2(C(=O)N(CCO)CCN(C)C)CC[C@]3(C)[C@H](CC[C@@H]4[C@@]5(C)CC=C(c6ccc(C(=O)O)cc6)C(C)(C)[C@@H]5CC[C@]43C)[C@@H]12
MEASURED ON: recombinant NL4-3 virus (Renilla luciferase in nef, Gag P373S)
RECORDED RESULT: > 100 nM
//
SMILES RECORD: C=C(C)[C@@H]1CC[C@]2(C(=O)NCC(N)=O)CC[C@]3(C)[C@H](CC[C@@H]4[C@@]5(C)CC=C(c6ccc(C(=O)O)cc6)C(C)(C)[C@@H]5CC[C@]43C)[C@@H]12
MEASURED ON: recombinant NL4-3 virus (Renilla luciferase in nef, Gag P373S)
RECORDED RESULT: < 100 nM

Please find the next compound below.
get_value(item= "C=C(C)[C@@H]1CC[C@]2(C(=O)NCCN(CC)CC)CC[C@]3(C)[C@H](CC[C@@H]4[C@@]5(C)CC=C(c6ccc(C(=O)O)cc6)C(C)(C)[C@@H]5CC[C@]43C)[C@@H]12" , readout=EC50) returns < 100 nM
